- study-system: CDK9/T1 (Homo sapiens)
- Sequence (P50750 whole entry): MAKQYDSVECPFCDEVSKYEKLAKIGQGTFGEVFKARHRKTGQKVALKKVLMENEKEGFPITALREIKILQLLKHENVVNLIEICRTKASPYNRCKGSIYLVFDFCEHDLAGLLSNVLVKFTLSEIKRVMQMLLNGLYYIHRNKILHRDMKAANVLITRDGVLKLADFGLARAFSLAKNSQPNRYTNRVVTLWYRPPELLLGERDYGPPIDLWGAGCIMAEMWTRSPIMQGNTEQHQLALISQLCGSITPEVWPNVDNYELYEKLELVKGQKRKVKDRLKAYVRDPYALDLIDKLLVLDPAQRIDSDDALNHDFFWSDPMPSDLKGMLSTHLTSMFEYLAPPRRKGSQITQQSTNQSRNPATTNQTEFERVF
- Sequence (O60563 whole entry partner): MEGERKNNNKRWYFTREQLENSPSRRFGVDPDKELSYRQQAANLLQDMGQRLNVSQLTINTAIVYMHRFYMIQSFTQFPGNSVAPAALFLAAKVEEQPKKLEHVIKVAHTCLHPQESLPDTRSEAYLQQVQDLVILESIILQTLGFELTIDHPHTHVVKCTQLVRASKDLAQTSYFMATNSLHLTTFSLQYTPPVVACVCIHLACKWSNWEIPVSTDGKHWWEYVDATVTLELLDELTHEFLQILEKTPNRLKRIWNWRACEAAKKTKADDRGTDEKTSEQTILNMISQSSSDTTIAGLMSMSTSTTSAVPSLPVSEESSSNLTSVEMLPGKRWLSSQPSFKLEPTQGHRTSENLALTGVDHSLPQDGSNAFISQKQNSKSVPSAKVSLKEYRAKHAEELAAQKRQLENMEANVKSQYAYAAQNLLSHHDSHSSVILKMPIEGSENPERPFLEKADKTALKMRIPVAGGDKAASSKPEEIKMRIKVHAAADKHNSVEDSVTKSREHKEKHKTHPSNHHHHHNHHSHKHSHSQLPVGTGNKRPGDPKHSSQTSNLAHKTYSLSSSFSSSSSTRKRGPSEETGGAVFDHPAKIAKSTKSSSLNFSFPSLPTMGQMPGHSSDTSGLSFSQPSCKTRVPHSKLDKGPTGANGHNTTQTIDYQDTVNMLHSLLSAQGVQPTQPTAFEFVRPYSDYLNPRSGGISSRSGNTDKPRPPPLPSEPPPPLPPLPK
- assay-details: ADP Glo Kinase assay CDK9/T1
- Type: biochemical
- experimental-parameters: CDK9T1; read-out: CDK inhibition, Ki (μM) CDK9T1
Recorded Ki values for a group of compounds are listed next.

>  <smiles-code>
Cc1cnc(N[C@H]2CC[C@H](N)CC2)nc1-c1cnc2cc(Nc3cncnc3)ccn12

>  <units-text>
µM

>  <relation>
=

>  <Ki>
0.051

$$$$
>  <smiles-code>
Fc1cnc(NC2CCNCC2)nc1-c1cnc2cc(-c3ccccc3)ccn12

>  <units-text>
µM

>  <relation>
>

>  <Ki>
5

$$$$
>  <smiles-code>
CS(=O)(=O)N1CCC(Nc2ncc(F)c(-c3cnc4ccc(-c5ccccc5)cn34)n2)CC1

>  <units-text>
µM

>  <relation>
=

>  <Ki>
0.711

$$$$
>  <smiles-code>
CN[C@H]1CC[C@H](Nc2ncc(C)c(-c3cnc4ccc(-c5ccccc5)cn34)n2)CC1

>  <units-text>
µM

>  <relation>
=

>  <Ki>
0.14

$$$$
>  <smiles-code>
CN1CCC(Nc2ncc(F)c(-c3cnc4ccc(-c5ccc(S(=O)(=O)N(C)C)cc5)cn34)n2)CC1

>  <units-text>
µM

>  <relation>
=

>  <Ki>
0.261

$$$$
>  <smiles-code>
N[C@H]1CC[C@H](Nc2ncc(F)c(-c3cnc4ccc(Nc5ccccc5)cn34)n2)CC1

>  <units-text>
µM

>  <relation>
=

>  <Ki>
0.003

$$$$
>  <smiles-code>
Cc1cnc(N[C@H]2CC[C@H](N)CC2)nc1-c1cnc2ccc(-c3cncnc3)cn12

>  <units-text>
µM

>  <relation>
=

>  <Ki>
0.165

$$$$
>  <smiles-code>
Cc1cnc(N[C@]23C[C@@]4(C)C[C@](C)(C[C@](O)(C4)C2)C3)nc1-c1cnc2ccc(Nc3cccnc3)cn12

>  <units-text>
µM

>  <relation>
=

>  <Ki>
0.561

$$$$
